assay overview: protein stability index of a GFP-peptide fusion (yeast GPS) (PSI 1-4); higher = more stable; sorted into four equal gates, so the index is relative within each strain
test parameters: san1∆
Returns one of true (1) or false (0); true (1) when protein stability index is >= 2.

input: Quick check, protein stability index >= 2? GRLRNKSHKQTIVTGGG [RPP1]
output: true (1)

***
input: Reported protein stability index reaches at least 2 for KEYISRLWHTLKYYQDL [SNF5] ?
output: false (0)

input: Dear colleague, could you confirm whether DEVTIRRTVGLKKDDYQ [SMC3] has protein stability index at or above 2?
output: true (1)

input: Is it the case that RATTYEKLTMVFQDNVY [SIN4] has protein stability index reaching or exceeding 2?
output: true (1)

input: Quick check, protein stability index >= 2? SDSETNHKSKDNNNGDD [SKP1]
output: true (1)

input: Textbook exercise: given the entry TIFGGVDKNGAHLYMLE [PRE10] , state whether its protein stability index is greater than or equal to 2.
output: true (1)

input: // inclusive: protein stability index at least 2? input: DRRAQRVAEKRDALLKE [RPL19A]
output: true (1)

----------
assay overview: protein stability index of a GFP-peptide fusion (yeast GPS) (PSI 1-4); higher = more stable; sorted into four equal gates, so the index is relative within each strain
test parameters: pdr5∆
protein stability index of 3 or higher: Fulfilled. Under 3: Not fulfilled.

input: Dear colleague, could you confirm whether ADLPGSYNLEYIESKFC [YMR129W/POM152] has protein stability index at or above 3?
output: Fulfilled

input: Answer whether protein stability index of ALNKISKYYPGVIIKVE [SNU114] is greater than or equal to 3.
output: Not fulfilled

input: Could you tell me if the measured protein stability index of DPSMDPELAMALRLSME [RPN10] reaches 3 or more?
output: Fulfilled

input: Hi, just wondering whether RYVYAHFPINVNIVEKD [RPL9A] shows protein stability index of 3 or higher.
output: Not fulfilled

input: // inclusive: protein stability index at least 3? input: EAESQLRAAQQQWGNDF [FAS2]
output: Fulfilled

More entries:
input: Kindly determine if protein stability index recorded for VDGEAVGDEFKGYVFKI [RPS6A] is above or exactly 3.
output: Fulfilled

input: Does VKLTYNSPSSALRALQE [YDL088C/ASM4] have a reported protein stability index of at least 3?
output: Not fulfilled

input: Hi, just wondering whether SFTNYITRSFKEPRLVI [RPS0A] shows protein stability index of 3 or higher.
output: Not fulfilled

----------
The following sequences are listed with their measured protein stability index values.
assay overview: protein stability index of a GFP-peptide fusion (yeast GPS) (PSI 1-4); higher = more stable; sorted into four equal gates, so the index is relative within each strain
test parameters: ubr1∆

input: Please supply the value of reported protein stability index for the item FVDDTNVYRVTVHKTFE [PRP8]
output: 2.52

input: Please report the measured protein stability index for QKVQGESHIDSRNNTLN [SIR4]
output: 3.01

input: Note down protein stability index recorded for KVEKGVNIEPFNIDDEI [LIN1]
output: 3.49

input: For the sequence NFKMLVLLATWNLEKWR [IRR1] , report protein stability index.
output: 1.56

input: Return reported protein stability index. Input sequence: EVAIRDVNLDVRIHSIQ [IRR1]
output: 1.68

input: Report protein stability index for YGGSRCANCVKERIVRA [RPL34B]
output: 3.15

input: Specify protein stability index for GVQTAYIDYSSKRYIPS [RRP40] and stop.
output: 2.33

input: Give the reported protein stability index for this sequence. ESTAGSASTSATGISGS [ECM29]
output: 3.28

input: Note down protein stability index recorded for KKRIRLPSEERIQKIIS [YIL149C/MLP2]
output: 2.72

input: State its protein stability index for this sequence: SKDIETLKKEWLKEYED [YIL149C/MLP2]
output: 3.15

More entries:
input: Consider the sequence LNLKFKEKWPSLELQSF [YML103C/NUP188] and give its recorded protein stability index.
output: 2.05

input: Report measured protein stability index; entry is QNSKEKNGLGLNFSTTA [MED2]
output: 2.99
